Numbers sourced from patent US20150343016A1.

Test: LD50 in mice
Details: mouse, in vivo
measurementType: LD50 (mg/kg)
Express it in mg/kg; write the number only.

Need LD50, item COc1ccc(C[C@H]2C(=O)N[C@H](C)C(=O)N(C)[C@@H]3C(=O)N(C)[C@@H](Cc4ccc(O)c(c4)Oc4ccc(cc4)[C@H]3O)C(=O)N[C@@H](C)C(=O)N[C@H](C)C(=O)N2C)cc1 (stereo in doubt) [Bouvardin, bouvardin]
12.4
